# conditionParameters: in isopropanol, 333.15 K
outcomeMeasure: solubility (mole fraction)
// return a plain number; no unit text

Enquiry: Look up solubility (mole fraction) for this compound: C=C1C[C@]23C[C@H]1CC[C@H]2[C@@]12CC[C@H](O)[C@@](C)(C(=O)O1)[C@H]2[C@@H]3C(=O)O
Return: 0.14

* * *

# conditionParameters: in acetonitrile, 288.15 K
outcomeMeasure: solubility (mole fraction)
// return a plain number; no unit text

Enquiry: Look up solubility (mole fraction) for this compound: C=C1C[C@]23C[C@H]1CC[C@H]2[C@@]12CC[C@H](O)[C@@](C)(C(=O)O1)[C@H]2[C@@H]3C(=O)O
Return: 0.00529

* * *

# conditionParameters: in ethyl acetate, 303.15 K
outcomeMeasure: solubility (mole fraction)
// return a plain number; no unit text

Enquiry: Look up solubility (mole fraction) for this compound: C=C1C[C@]23C[C@H]1CC[C@H]2[C@@]12CC[C@H](O)[C@@](C)(C(=O)O1)[C@H]2[C@@H]3C(=O)O
Return: 0.0195

* * *

# conditionParameters: in isopropanol, 328.15 K
outcomeMeasure: solubility (mole fraction)

Enquiry: Look up solubility (mole fraction) for this molecule: C=C1C[C@]23C[C@H]1CC[C@H]2[C@@]12CC[C@H](O)[C@@](C)(C(=O)O1)[C@H]2[C@@H]3C(=O)O
Return: 0.131

* * *

# conditionParameters: in water, 288.15 K
outcomeMeasure: solubility (mole fraction)
// return a plain number; no unit text

Enquiry: Look up solubility (mole fraction) for this compound: C=C1C[C@]23C[C@H]1CC[C@H]2[C@@]12CC[C@H](O)[C@@](C)(C(=O)O1)[C@H]2[C@@H]3C(=O)O
Return: 1.7e-05

* * *

# conditionParameters: in methanol, 303.15 K
outcomeMeasure: solubility (mole fraction)
// return a plain number; no unit text

Enquiry: Look up solubility (mole fraction) for this compound: C=C1C[C@]23C[C@H]1CC[C@H]2[C@@]12CC[C@H](O)[C@@](C)(C(=O)O1)[C@H]2[C@@H]3C(=O)O
Return: 0.0743

* * *

# conditionParameters: in n-butanol, 323.15 K
outcomeMeasure: solubility (mole fraction)

Enquiry: Look up solubility (mole fraction) for this compound: C=C1C[C@]23C[C@H]1CC[C@H]2[C@@]12CC[C@H](O)[C@@](C)(C(=O)O1)[C@H]2[C@@H]3C(=O)O
Return: 0.1

* * *

# conditionParameters: in methanol, 328.15 K
outcomeMeasure: solubility (mole fraction)

Enquiry: Look up solubility (mole fraction) for this molecule: C=C1C[C@]23C[C@H]1CC[C@H]2[C@@]12CC[C@H](O)[C@@](C)(C(=O)O1)[C@H]2[C@@H]3C(=O)O
Return: 0.11

* * *

# conditionParameters: in acetone, 293.15 K
outcomeMeasure: solubility (mole fraction)
// return a plain number; no unit text

Enquiry: Look up solubility (mole fraction) for this compound: C=C1C[C@]23C[C@H]1CC[C@H]2[C@@]12CC[C@H](O)[C@@](C)(C(=O)O1)[C@H]2[C@@H]3C(=O)O
Return: 0.0645

* * *

# conditionParameters: in methanol, 283.15 K
outcomeMeasure: solubility (mole fraction)

Enquiry: Look up solubility (mole fraction) for this compound: C=C1C[C@]23C[C@H]1CC[C@H]2[C@@]12CC[C@H](O)[C@@](C)(C(=O)O1)[C@H]2[C@@H]3C(=O)O
Return: 0.051
